molecular target: HLA-A11 (A*1101) (Homo sapiens, UniProt P04439, A114D/D185E/E176A/F33Y/L180Q/S129P/T187R); assay: biochemical; format: binding
No end group written: not given here.
readout type: pIC50
Answers are plain numbers, as −log10 of the molar value.

// known answers, use as guide
* RLECVLMYK [Peptide 1589.12] | 7.68
* MQYVAWKYIY [Peptide 88.0233] | 7.28
* ILLLLIRFK [Peptide 88.0386] | 5.73
* RLECAIYYK [Peptide 1589.01] | 7.52
* SVYGETLEK [Peptide 78.0291] | 6.78
* AFDLSHFLK [Peptide 9017.0063] | 7.34

For each of the sequences below, state pIC50.
1. KSFLKGTPKK [Peptide 88.0149]
2. CFFTRTWSR [Peptide 88.0382]
3. LALTALITPK [Peptide 9017.0228]
4. DSNACAFLK [Peptide 1587.33]
5. MTDAGTWDK [Peptide 88.0400]
6. KTVRLIKFLY [Peptide 9017.0197]
7. SVRKLTEDR [Peptide 9017.0106]
8. GLYYWCDGEK [Peptide 88.0229]

1. 7.05
2. 5.83
3. 8.18
4. 6.52
5. 7.92
6. 6.63
7. 5.12
8. 7.62

Record pIC50 per entry; entries follow.
1. AVNKMFCQLAK [Peptide 1556.46]
2. TFPNPFPFDK [Peptide 88.0162]
3. LTSQIEHWK [Peptide 88.0439]
4. GLVFGILIKR [Peptide 9012.0244]
5. LFYSKVRKYK [Peptide 88.0098]

[8.00, 6.66, 7.85, 6.31, 5.59]

Give me pIC50 for each of these sequences, listed below.
1. AQVLHVLKR [Peptide 88.0335]
2. WTLELLEELK [Peptide 9017.0238]
3. VTYNSEVQR [Peptide 1589.29]
4. GLYYIHGNEK [Peptide 1589.40]
5. LSALKLFLK [Peptide 1587.39]

7.10
5.42
7.60
7.74
7.51

Can you give me pIC50 for all of these, one by one?
1. RQMSMGQWIK [Peptide 1587.35]
2. TILWKDIFHR [Peptide 9012.0223]
3. STCMGGMNR [Peptide 1556.61]
4. ALQGLAQSR [Peptide 88.0398]
5. AACWRSRRR [Peptide 78.0322]

1. 8.22
2. 8.00
3. 5.96
4. 5.56
5. 4.73

Record pIC50 per entry; entries follow.
1. ALTALIKPK [Peptide 9017.0098]
2. IVYRDNNPY [Peptide 78.0292]
3. LLYGPANTGK [Peptide 1587.56]
4. KTDEGGDWK [Peptide 88.0380]
5. VTVKVGGQLR [Peptide 1516.06]
6. KTLLQPYCLY [Peptide 88.0153]
7. SLYGKTLEER [Peptide 78.0142]

1. 7.72
2. 7.74
3. 8.06
4. 6.39
5. 6.70
6. 6.39
7. 5.76

Please report pIC50 for every entry that follows.
1. TTNCTYKGR [Peptide 1589.41]
2. VVPAYNISK [Peptide 88.0397]
3. VIDSPAGQA [Peptide 78.0316]
4. VLYGPANTGK [Peptide 88.0180]
5. ATCALYWYR [Peptide 88.0371]
6. QQLLFIHFR [Peptide 9017.0111]

1: 5.66; 2: 7.85; 3: 5.03; 4: 7.60; 5: 7.74; 6: 8.32

Below are some sequences; for each one, tell me its pIC50.
1. ETLNASPYK [Peptide 1589.39]
2. GVIVMMLIR [Peptide 88.0376]
3. RQLFLNTVK [Peptide 1589.44]
4. KLFGYSWYK [Peptide 76.0146]

1. 7.57
2. 6.36
3. 7.41
4. 8.14

Consider the following items and state reported pIC50 for each.
1. FLGALKSFLK [Peptide 88.0148]
2. SFSELVRPFK [Peptide 1587.03]
3. ETNEALELK [Peptide 1556.68]
4. TLWNPPTTAK [Peptide 1556.04]
5. NVCVSWKYK [Peptide 88.0383]
6. IVVSAELPK [Peptide 1556.19]
7. WTIVYIEYRK [Peptide 9017.0243]

1: 6.92; 2: 6.26; 3: 7.03; 4: 6.97; 5: 6.03; 6: 7.03; 7: 7.43

Give pIC50 for each listed item.
1. FLGAFKKFLK [Peptide 88.0169]
2. LLFYSKVRK [Peptide 78.0298]

1. 8.02
2. 7.89
